Recorded values, source patent US12624096B2.

# ka listing for each entry below
- TARGET_OF_ASSAY: hT40 (Homo sapiens, UniProt P10636)
- Sequence (P10636 1-441 isoform P10636-8): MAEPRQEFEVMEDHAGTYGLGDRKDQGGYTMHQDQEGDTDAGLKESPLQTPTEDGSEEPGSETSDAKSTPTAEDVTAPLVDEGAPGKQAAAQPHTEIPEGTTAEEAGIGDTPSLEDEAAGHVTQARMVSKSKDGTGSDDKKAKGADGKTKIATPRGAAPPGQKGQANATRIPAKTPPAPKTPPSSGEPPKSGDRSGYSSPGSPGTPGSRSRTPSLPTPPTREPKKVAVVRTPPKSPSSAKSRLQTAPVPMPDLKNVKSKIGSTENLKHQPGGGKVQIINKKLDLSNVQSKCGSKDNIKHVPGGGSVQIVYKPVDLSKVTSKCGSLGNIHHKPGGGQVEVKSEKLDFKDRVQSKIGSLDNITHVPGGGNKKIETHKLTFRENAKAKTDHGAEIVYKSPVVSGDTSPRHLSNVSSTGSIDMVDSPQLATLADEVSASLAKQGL
- PROTOCOL_TEXT: Biacore X100 SPR, scAb captured via anti-HuCk, hT40 as analyte
- Format: binding
- CONDITION: scAb, Table 23, T441 (hT40)
ASSAY_METRIC: ka (M⁻¹ s⁻¹)

# MOLECULE, NUMERIC_VALUE
measured = [
    ("CE2: anti-tau clone referred to as CE2 or E1B8, SEQ ID NO: 366 (protein, CE2/E1B8 amino acid sequence) scFv: QVQLQESGPSLVKPSQTLSLTCTVSGFSLTNYPVGWVRQAPGKALEWIGNIENDGSANYASALKSRLSITRDTSKNQVSLSLSSATTEDTAVYYCGREFGGSDGYTYFVDIDYWGPGLLVTVSSEGKSSGASGESKVDDQAVLTQPSSVSKSLGQSVSITCSGSSSNVGYGNYVSWFQQVPGSAPKILIYGATSRASGVPDRFSGSRSGNTATLTITSLQAEDEADYYCASYDGSSSGVFGSGTRLTVLG", 213700),
    ("NS2A1: anti-tau clone, SEQ ID NO: 220 (protein, NS2A1 amino acid sequence) scFv: QVQLQESGPSLVKPSQTLSLTCTVSGFSLSTNSVGWVRQAPGKAPEWVAGIDTDGEEGFNPVLKSRLSITRDTSKSQVSLSLSNVTSEDTAVYYCGRSYRTDGLAYGYVQAIDYWGPGLLVTISSEGKSSGASGESKVDDQSVLTQPSSVSGSPGQTVSITCSGSYIGSSGVGWFQQLPGSGLRTIIVASDGRPSGVPDGFSMSKSGNTATLTISSLQAEDEADYFCGSSDRTQYTGLFGSGTRLTVLG", 252100),
]
